Recorded measurements of cytotoxicity at 72 hours, 100 µM, one per entry
Test: Cytotoxicity assay (WST-1)
Format: cell-based
Conditions: human, HeLa cervical adenocarcinoma (epithelial) cells, 100 μM test compound
# unit: % | format: bare number

Previously resolved entries follow.
COc1ccc(NS(=O)(=O)c2ccccc2NC(=O)c2ccc([N+](=O)[O-])cc2)cc1 : 56
COc1ccc(S(=O)(=O)Nc2ccccc2C(=O)Nc2ccncc2)cc1 : 84
COc1ccc(NS(=O)(=O)c2ccccc2NC(=O)c2ccc(F)cc2)cc1 : 91

Moving on to the next compound.
Supply cytotoxicity at 72 hours, 100 µM value. Item: COc1ccc(NS(=O)(=O)c2ccccc2NC(=O)c2ccncc2)cc1
92

====

System: HUVEC
Assay: Growth inhibition assay (crystal violet)
Assay type: cell-based
Conditions: Homo sapiens; HUVEC proliferation, 72 h
readout label: IC50 (nM)
# number only, unit nM dropped from output

COc1ccc(NS(=O)(=O)c2ccccc2NC(=O)c2ccc(F)cc2)cc1 [Example 5] : 7100
COc1ccc(NS(=O)(=O)c2ccccc2NC(=O)c2ccncc2)cc1 [Example 3] : 290

Shifting focus to the compound that follows.
Dear colleague, please send me the reported IC50 for COc1ccc(NS(=O)(=O)c2ccccc2NS(=O)(=O)c2cccs2)cc1 [Example 13] when you can.
280

====

Below, each entry is listed alongside its reported pIC50.
Tested on: HUVEC
Test: Cord formation assay on matrigel
Assay type: cell-based
Conditions: Homo sapiens, 24 h incubation
In simple prose, pIC50 is minus the logarithm base ten of a concentration in moles per litre.

COc1ccc(NS(=O)(=O)c2ccccc2NC(=O)c2ccc(F)cc2)cc1 : 4.44

Output measured pIC50 for this item: COc1ccc(NS(=O)(=O)c2ccccc2NS(=O)(=O)c2cccs2)cc1
6.39

For the compound COc1ccc(NS(=O)(=O)c2ccccc2NC(=O)c2ccncc2)cc1 , give its reported pIC50.
6.32

Values were extracted from patent US20050038248A1.
